Here the recorded Cmax is given for each entry.
protocol.description: Cmax in BALB/c mouse plasma at 10 mg/kg, po by LC-MS/MS analysis
Format: ADME, organism-based
Set-up: dose 10 mg/kg, route oral
Provide the reading as a plain figure in ng/mL.

# example entries with known answers
[Q] // Input: `COC(=S)NC[C@H]1CN(c2ccc(N3CC[Si](C)(C)CC3)c(F)c2)C(=O)O1` . Output its Cmax only.
[A] 370

[Q] // Input: `CC(=O)NC[C@H]1CN(c2cc(F)c(N3CC[Si](C)(C)CC3)c(F)c2)C(=O)O1` . Output its Cmax only.
[A] 2020

[Q] // Input: `CC(=O)NC[C@H]1CN(c2ccc(N3CCOCC3)c(F)c2)C(=O)O1` . Output its Cmax only.
[A] 3650

Next item in the queue.
[Q] // Input: `CC(=O)NC[C@H]1CN(c2ccc(N3CC[Si](C)(C)CC3)c(F)c2)C(=O)O1` . Output its Cmax only.
[A] 1050

Values compiled from ChEMBL document CHEMBL3751664.
